assay_summary: Clearance in rat plasma at 1 mg/kg, iv or 2 mg/kg, po by LC/MS/MS analysis
Type: ADME, organism-based
reported_metric: clearance (mL/min/kg)
Record the value in mL/min/kg, omitting the unit from your answer.

-- ask Entry `CO[C@H]1C[C@H](Oc2cc(F)c(F)c(-c3ccc4c(c3)CC[C@H](CCC(=O)O)O4)n2)C1` has what clearance?
-- reply 1.1

###

assay_summary: Protein binding in rhesus monkey plasma at 0.5 mg/kg, iv or 1 mg/kg, po by LC/MS/MS analysis
Assay type: ADME, organism-based, Macaca mulatta
settings: read-out: PPB (converted)
reported_metric: fraction unbound
// response body must contain only the number

-- ask // lookup fraction unbound for `CO[C@H]1C[C@H](Oc2cc(F)c(F)c(-c3ccc4c(c3)CC[C@H](CCC(=O)O)O4)n2)C1`
-- reply 0.0022

###

study_target: UniProt Q7TMA4
Sequence (Q7TMA4 whole entry): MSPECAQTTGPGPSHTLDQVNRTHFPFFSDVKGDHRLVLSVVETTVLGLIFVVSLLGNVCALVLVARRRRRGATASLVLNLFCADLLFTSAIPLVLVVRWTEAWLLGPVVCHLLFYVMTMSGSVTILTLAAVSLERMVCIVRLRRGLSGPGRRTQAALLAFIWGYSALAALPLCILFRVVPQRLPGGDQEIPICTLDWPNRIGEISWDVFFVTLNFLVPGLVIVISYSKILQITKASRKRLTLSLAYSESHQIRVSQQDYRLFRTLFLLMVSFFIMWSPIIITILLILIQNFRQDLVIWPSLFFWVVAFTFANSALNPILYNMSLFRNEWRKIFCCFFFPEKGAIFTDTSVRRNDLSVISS
assay_summary: Agonist activity at mouse GPR120 expressed in CHOK1 cells assessed as increase in IP1 accumulation after 60 mins by HTRF assay
Assay type: functional, cell-based, CHO-K1
Answer each item with its documented pEC50.
Scale: negative log10 of molar concentration, which is what pEC50 denotes.

-- ask Form: Entry = `CO[C@H]1C[C@H](Oc2cc(F)c(F)c(-c3ccc4c(c3)CC[C@H](CCC(=O)O)O4)n2)C1` | System = UniProt Q7TMA4 | pEC50 = ____
-- reply 8.19

-- ask Also `COc1cc(O[C@H]2C[C@H](OC)C2)nc(-c2ccc3c(c2)CC[C@H](CCC(=O)O)O3)c1F` , if possible.
-- reply 8.25

###

assay_summary: Mean residence time in rat plasma at 1 mg/kg, iv or 2 mg/kg, po by LC/MS/MS analysis
Type: ADME, organism-based
reported_metric: MRT (h)
Record the value in h, omitting the unit from your answer.

-- ask Would you mind telling me what MRT value was observed for `CO[C@H]1C[C@H](Oc2cc(F)c(F)c(-c3ccc4c(c3)CC[C@H](CCC(=O)O)O4)n2)C1` ?
-- reply 4.6

###

study_target: Voltage-dependent L-type calcium channel subunit alpha-1C (Homo sapiens)
Sequence (Q13936 whole entry): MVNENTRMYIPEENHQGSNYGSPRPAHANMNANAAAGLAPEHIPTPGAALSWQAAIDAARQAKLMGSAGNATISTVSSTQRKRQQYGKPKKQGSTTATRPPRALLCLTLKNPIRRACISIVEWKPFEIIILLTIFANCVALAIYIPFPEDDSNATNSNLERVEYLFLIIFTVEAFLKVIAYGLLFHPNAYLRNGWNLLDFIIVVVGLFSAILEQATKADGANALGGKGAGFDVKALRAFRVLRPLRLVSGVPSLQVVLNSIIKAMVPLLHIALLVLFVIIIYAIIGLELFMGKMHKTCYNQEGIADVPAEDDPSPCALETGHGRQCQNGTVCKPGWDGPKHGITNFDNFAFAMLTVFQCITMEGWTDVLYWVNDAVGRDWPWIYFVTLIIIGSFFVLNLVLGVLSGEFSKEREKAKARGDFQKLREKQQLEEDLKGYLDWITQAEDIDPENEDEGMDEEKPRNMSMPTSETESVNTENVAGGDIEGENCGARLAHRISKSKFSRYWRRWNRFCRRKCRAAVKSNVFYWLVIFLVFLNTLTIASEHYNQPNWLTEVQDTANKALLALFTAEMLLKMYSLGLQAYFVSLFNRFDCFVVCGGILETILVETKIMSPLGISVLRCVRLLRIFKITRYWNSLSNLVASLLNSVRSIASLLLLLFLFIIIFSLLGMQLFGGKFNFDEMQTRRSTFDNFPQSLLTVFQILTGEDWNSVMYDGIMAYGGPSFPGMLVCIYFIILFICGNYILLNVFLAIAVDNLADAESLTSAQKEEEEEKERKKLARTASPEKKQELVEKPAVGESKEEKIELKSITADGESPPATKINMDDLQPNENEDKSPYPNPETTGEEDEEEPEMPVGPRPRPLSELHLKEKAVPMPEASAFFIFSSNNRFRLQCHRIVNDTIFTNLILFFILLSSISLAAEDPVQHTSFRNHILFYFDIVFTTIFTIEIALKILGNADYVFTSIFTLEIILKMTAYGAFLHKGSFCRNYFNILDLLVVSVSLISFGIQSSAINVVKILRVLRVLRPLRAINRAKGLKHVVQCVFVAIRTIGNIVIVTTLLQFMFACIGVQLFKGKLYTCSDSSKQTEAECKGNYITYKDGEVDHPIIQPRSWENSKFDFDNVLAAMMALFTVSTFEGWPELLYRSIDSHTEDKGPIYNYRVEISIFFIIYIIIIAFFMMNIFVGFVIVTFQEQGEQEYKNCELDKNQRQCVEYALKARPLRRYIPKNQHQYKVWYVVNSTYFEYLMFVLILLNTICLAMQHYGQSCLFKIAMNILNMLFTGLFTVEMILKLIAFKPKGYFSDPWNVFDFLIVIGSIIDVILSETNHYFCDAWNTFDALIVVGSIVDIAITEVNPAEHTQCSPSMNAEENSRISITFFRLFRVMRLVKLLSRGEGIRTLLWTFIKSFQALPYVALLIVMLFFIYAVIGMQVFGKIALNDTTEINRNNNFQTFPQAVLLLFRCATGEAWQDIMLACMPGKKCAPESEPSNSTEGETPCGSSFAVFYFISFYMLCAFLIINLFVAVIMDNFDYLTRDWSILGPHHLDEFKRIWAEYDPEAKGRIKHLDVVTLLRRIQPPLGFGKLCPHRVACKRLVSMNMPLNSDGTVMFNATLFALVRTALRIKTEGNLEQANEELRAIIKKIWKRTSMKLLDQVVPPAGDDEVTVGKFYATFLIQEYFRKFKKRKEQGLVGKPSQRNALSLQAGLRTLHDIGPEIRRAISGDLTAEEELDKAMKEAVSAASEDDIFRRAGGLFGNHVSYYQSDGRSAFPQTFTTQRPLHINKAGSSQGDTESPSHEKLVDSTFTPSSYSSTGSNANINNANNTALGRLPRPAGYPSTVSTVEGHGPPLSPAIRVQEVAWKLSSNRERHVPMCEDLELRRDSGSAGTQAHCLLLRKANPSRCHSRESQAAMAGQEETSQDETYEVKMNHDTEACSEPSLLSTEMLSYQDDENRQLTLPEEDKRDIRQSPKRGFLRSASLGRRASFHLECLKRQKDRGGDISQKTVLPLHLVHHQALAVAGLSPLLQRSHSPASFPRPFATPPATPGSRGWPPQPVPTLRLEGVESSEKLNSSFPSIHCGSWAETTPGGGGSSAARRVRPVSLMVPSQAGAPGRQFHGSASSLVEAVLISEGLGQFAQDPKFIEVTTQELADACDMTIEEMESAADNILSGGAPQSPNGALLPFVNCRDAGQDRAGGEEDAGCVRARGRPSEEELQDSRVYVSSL
assay_summary: Inhibition of Cav1.2 (unknown origin)
reported_metric: pIC50
Lab note — pIC50 values are minus log10 of concentrations in M.

-- ask What value of pIC50 has been reported for the following compound? `CO[C@H]1C[C@H](Oc2cc(F)c(F)c(-c3ccc4c(c3)CC[C@H](CCC(=O)O)O4)n2)C1`
-- reply 4.55

###

I'd be grateful if you could share measured pEC50 for these entries.
study_target: Free fatty acid receptor 4 (Homo sapiens, UniProt Q5NUL3)
Sequence (Q5NUL3 whole entry, canonical isoform): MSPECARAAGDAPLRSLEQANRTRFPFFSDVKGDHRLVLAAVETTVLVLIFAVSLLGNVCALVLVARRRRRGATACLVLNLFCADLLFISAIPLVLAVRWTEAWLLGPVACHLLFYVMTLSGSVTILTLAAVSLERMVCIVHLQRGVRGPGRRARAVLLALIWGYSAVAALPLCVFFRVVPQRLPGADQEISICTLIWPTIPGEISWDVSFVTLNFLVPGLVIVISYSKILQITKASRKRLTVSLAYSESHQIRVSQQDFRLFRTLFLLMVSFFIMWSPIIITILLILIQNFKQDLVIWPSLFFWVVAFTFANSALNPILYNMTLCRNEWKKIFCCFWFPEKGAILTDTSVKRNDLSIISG
assay_summary: Agonist activity at human GPR120 short isoform expressed in CHOK1 cells assessed as increase in IP1 accumulation after 60 mins by HTRF assay
Type: functional, cell-based, CHO-K1
API: returns pEC50 as number; meaning -log10 of concentration in mol/L.

-- ask Param item = `COc1cc(OC2CCC2)nc(-c2ccc3c(c2)CC[C@H]([C@@H]2C[C@H]2C(=O)O)O3)c1F` ; retrieve measured pEC50.
-- reply 7.74

-- ask Likewise for `O=C(O)CC[C@H]1CCc2cc(-c3cc(OC4CCC4)cc(F)c3F)ccc2O1` ?
-- reply 7.68

-- ask Repeat with `Fc1ccc(OC2CCC2)cc1-c1ccc2c(c1)CC[C@H](CCc1nnn[nH]1)O2`
-- reply 6.66

-- ask Cool, now `O=C(O)[C@H]1C[C@@H]1[C@H]1CCc2cc(-c3cc(OC(F)(F)F)ccc3F)ccc2O1`
-- reply 6.49

-- ask Again, but for `COc1cc(Oc2ncc(C)s2)cc(-c2ccc3c(c2)CC[C@H](CCC(=O)O)O3)c1F`
-- reply 7.43

-- ask Same thing, different compound: `O=C(O)CC[C@H]1CCc2cc(-c3cc(OC4CCC4)ccc3F)ccc2O1`
-- reply 7.55

-- ask What would you report for `COc1cc(OC(F)(F)F)cc(-c2ccc3c(c2)CC[C@H](CCC(=O)O)O3)c1F` ?
-- reply 7.60

-- ask Next entry: `CO[C@H]1C[C@H](Oc2cc(F)c(F)c(-c3ccc4c(c3)CC[C@H](CCc3nnn[nH]3)O4)c2)C1`
-- reply 6.62

-- ask Also `O=C(O)CC[C@H]1CCc2cc(-c3cc(OC(F)(F)F)ccc3F)ccc2O1` , if possible.
-- reply 6.77

###

assay_summary: Volume of distribution at steady state in rhesus monkey plasma at 0.5 mg/kg, iv or 1 mg/kg, po by LC/MS/MS analysis
Format: ADME, organism-based, Macaca mulatta
settings: read-out: Vdss
reported_metric: Vd (L/kg)
Return type: number; implicit unit L/kg.

-- ask Name the reported Vd value associated with the compound `CO[C@H]1C[C@H](Oc2cc(F)c(F)c(-c3ccc4c(c3)CC[C@H](CCC(=O)O)O4)n2)C1`
-- reply 0.27

###

assay_summary: Volume of distribution at steady state in rat plasma at 1 mg/kg, iv or 2 mg/kg, po by LC/MS/MS analysis
Type: ADME, organism-based
settings: read-out: Vdss
reported_metric: Vd
Answer format reminder: number followed by unit.

-- ask Requested read-out: Vd. Entry: `CO[C@H]1C[C@H](Oc2cc(F)c(F)c(-c3ccc4c(c3)CC[C@H](CCC(=O)O)O4)n2)C1`
-- reply 0.3 L/kg

###

assay_summary: AUC in mouse plasma at 2 mg/kg, iv by LC/MS/MS analysis
Type: ADME, organism-based
reported_metric: AUC (µM·h)
// return numeric value only (unit: µM·h, not printed)

-- ask Could you tell me which AUC is on file for `CO[C@H]1C[C@H](Oc2cc(F)c(F)c(-c3ccc4c(c3)CC[C@H](CCC(=O)O)O4)n2)C1` ?
-- reply 8.1

###

study_target: Free fatty acid receptor 4 (Homo sapiens)
assay_summary: Agonist activity at human GPR120 short isoform expressed in CHOK1 cells assessed as beta-arrestin recruitment after 90 mins by luminescence assay
Type: cell-based, CHO-K1
Could you mark each record 1 if its EC50 falls strictly under 40 nM, and 0 if it equals or exceeds it?

-- ask Please indicate whether the reported EC50 of `COc1cc(OC2CC2)cc(-c2ccc3c(c2)CC[C@H](CCc2nnn[nH]2)O3)c1F` is strictly below 40 nM.
-- reply 1

-- ask Cool, now `O=C(O)[C@@H]1C[C@H]1[C@H]1CCc2cc(-c3cc(OC(F)(F)F)ccc3F)ccc2O1`
-- reply 1

-- ask Also `COc1cc(O[C@H]2C[C@H](OC)C2)cc(-c2ccc3c(c2)CC[C@H]([C@@H]2C[C@H]2C(=O)O)O3)c1F` , if possible.
-- reply 0

-- ask How about `CO[C@H]1C[C@H](Oc2cc(F)c(F)c(-c3ccc4c(c3)CC[C@H](CCc3nnn[nH]3)O4)c2)C1` ?
-- reply 0

-- ask Try this compound too: `O=C(O)CC[C@H]1CCc2cc(-c3cc(OC4CCC4)ncc3F)ccc2O1`
-- reply 0

-- ask Would you mind doing `O=C(O)CC[C@H]1CCc2cc(-c3nc(OC4CCC4)ccc3F)ccc2O1` as well?
-- reply 1

-- ask What do we get for `O=C(O)[C@H]1C[C@@H]1[C@H]1CCc2cc(-c3cc(OC(F)(F)F)ccc3F)ccc2O1` ?
-- reply 0

-- ask Query `COc1cc(OC(F)(F)F)cc(-c2ccc3c(c2)CC[C@H](CCc2nnn[nH]2)O3)c1F` next
-- reply 0

-- ask Now try `COc1cc(OC2CCC2)nc(-c2ccc3c(c2)CC[C@H](CCC(=O)O)O3)c1F` .
-- reply 1

-- ask Please answer likewise for `Fc1ccc(OC(F)(F)F)cc1-c1ccc2c(c1)CC[C@H](CCc1nnn[nH]1)O2`
-- reply 0

-- ask Subsequent entry: `COc1cc(OC(F)(F)F)cc(-c2ccc3c(c2)CC[C@H](CCC(=O)O)O3)c1F`
-- reply 1

-- ask Would you kindly repeat that for `O=C(O)CC[C@H]1CCc2cc(-c3cc(OC4CCC4)ccc3F)ccc2O1` ?
-- reply 1

-- ask `COc1cc(OC2CCC2)cc(-c2ccc3c(c2)CC[C@H](CCC(=O)O)O3)c1F` , same question.
-- reply 1

-- ask Please answer likewise for `O=C(O)CC[C@H]1CCc2cc(-c3cc(OC4CCC4)cc(F)c3F)ccc2O1`
-- reply 1

-- ask Now consider `O=C(O)CC[C@H]1CCc2cc(-c3cc(OC(F)(F)F)cc(Cl)c3F)ccc2O1` .
-- reply 1

-- ask `Fc1ccc(OC2CCC2)cc1-c1ccc2c(c1)CC[C@H](CCc1nnn[nH]1)O2` , same question.
-- reply 0

-- ask Another compound to look at: `COc1cc(O[C@H]2C[C@H](OC)C2)cc(-c2ccc3c(c2)CC[C@H](CCc2nnn[nH]2)O3)c1F`
-- reply 0

-- ask Do the same for `O=C(O)CC[C@H]1CCc2cc(-c3cc(OC4CCC4)cnc3F)ccc2O1` please
-- reply 0

-- ask `COc1cc(Oc2ncc(C)s2)cc(-c2ccc3c(c2)CC[C@H](CCC(=O)O)O3)c1F` , same question.
-- reply 1
